These entries and their values trace back to patent US20260092071A1.

biological target: SMARCA4 (Homo sapiens, UniProt P51532); assay: HiBiT assay for protein degradation, Hela SMARCA4-HiBiT cells (A series); assay type: cell-based; parameters: fuse HiBiT to the carboxy terminus of SMARCA2 (Promega CS302365) or SMARCA4 (Promega CS3023225); host or cells: HeLa (CRISPR/Cas9 HiBiT knock-in); conditions: read-out: SMARC A4 Hela HiBit DC50
Sequence (P51532 whole entry): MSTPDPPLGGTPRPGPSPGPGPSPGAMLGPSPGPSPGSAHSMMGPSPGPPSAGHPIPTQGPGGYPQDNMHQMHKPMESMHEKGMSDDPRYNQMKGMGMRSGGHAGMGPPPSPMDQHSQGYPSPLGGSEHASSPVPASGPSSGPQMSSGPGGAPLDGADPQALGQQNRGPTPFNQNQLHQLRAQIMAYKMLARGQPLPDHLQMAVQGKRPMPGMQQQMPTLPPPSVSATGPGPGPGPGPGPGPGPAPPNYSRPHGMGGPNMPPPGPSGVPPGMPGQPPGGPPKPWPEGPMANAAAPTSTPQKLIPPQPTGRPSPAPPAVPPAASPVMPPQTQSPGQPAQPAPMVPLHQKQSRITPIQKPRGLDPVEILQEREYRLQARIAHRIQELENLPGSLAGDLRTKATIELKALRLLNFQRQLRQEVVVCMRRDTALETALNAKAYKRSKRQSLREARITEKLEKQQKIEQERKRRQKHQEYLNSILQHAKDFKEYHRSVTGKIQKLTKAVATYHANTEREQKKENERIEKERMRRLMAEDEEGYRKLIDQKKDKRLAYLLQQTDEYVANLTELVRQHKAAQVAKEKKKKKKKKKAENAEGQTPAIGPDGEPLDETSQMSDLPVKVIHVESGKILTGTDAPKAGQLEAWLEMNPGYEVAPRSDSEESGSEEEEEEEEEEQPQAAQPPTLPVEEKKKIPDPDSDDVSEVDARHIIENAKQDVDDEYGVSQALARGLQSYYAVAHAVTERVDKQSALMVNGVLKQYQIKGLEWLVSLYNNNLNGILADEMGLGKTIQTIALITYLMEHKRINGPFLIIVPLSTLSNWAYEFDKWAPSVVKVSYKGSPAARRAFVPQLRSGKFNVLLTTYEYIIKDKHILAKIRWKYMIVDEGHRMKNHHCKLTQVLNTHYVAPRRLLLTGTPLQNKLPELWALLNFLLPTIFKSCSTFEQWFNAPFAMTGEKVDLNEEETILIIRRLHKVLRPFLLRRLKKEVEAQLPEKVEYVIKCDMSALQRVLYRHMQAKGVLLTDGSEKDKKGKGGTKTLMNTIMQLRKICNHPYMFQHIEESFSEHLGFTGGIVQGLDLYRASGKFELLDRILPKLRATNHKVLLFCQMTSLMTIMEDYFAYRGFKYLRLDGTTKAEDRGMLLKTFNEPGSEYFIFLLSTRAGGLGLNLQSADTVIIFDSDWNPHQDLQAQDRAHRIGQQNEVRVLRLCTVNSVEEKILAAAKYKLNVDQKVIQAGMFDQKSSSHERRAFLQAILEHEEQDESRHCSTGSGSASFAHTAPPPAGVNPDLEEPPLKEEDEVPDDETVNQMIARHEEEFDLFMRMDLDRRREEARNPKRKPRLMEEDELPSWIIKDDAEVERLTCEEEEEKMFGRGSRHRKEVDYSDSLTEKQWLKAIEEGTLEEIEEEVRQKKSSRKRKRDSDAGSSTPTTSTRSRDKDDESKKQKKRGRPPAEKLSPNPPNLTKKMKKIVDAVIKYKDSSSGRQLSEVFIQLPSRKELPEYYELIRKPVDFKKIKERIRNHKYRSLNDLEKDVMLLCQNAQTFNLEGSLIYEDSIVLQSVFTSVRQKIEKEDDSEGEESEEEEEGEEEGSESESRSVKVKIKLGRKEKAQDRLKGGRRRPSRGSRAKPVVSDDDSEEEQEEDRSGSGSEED
VALUE TYPE: DC50

COMPOUND	VALUE TYPE	REPORTED VALUE
Cc1ncsc1-c1ccc([C@H](C)NC(=O)[C@@H]2C[C@@H](O)CN2C(=O)[C@@H](n2cc([C@H]3C[C@H](CN4CCC(c5ccc6c(c5)C5(CCCCC5)c5nc(=O)c7c(Br)cccc7n5-6)CC4)C3)nn2)C(C)(C)C)cc1 [Compound A61]	DC50	< 100 nM
Cc1ncsc1-c1ccc([C@H](C)NC(=O)[C@@H]2C[C@@H](O)CN2C(=O)[C@@H](n2cc(CCCCCN3CCC(c4ccc5c(c4)-n4c(nc(=O)c6c(Br)cccc64)C54CCCCC4)CC3)nn2)C(C)(C)C)cc1 [Compound A46]	DC50	< 100 nM
Cc1ncsc1-c1ccc([C@H](C)NC(=O)[C@@H]2C[C@@H](O)CN2C(=O)[C@@H](NC(=O)C23CCC(CN4CCC(c5ccc6c(c5)C5(CCCCC5)c5nc(=O)c7c(Br)cccc7n5-6)CC4)(CC2)CC3)C(C)(C)C)cc1 [Compound A27]	DC50	501 to 1000 nM
Cc1ncsc1-c1ccc([C@H](CN2CCOCC2)NC(=O)[C@@H]2C[C@@H](O)CN2C(=O)[C@@H](NC(=O)C23CCC(CN4CCC(c5ccc6c(c5)-n5c(nc(=O)c7c(Br)cccc75)C65CCCCC5)CC4)(CC2)CC3)C(C)(C)C)cc1 [Compound A30]	DC50	> 1000 nM

* * *

biological target: SMARCA2 (Homo sapiens); test: HiBit assay in engineered HT1080 CRISPR knock-in cell, 6 hrs (B series), SMARCA2; assay type: cell-based; details: HT1080 CRISPR knock-in cells, 6 hrs incubation; read-out: SMARC A2 HT1080 HiBit DC50
Sequence (P51531 whole entry): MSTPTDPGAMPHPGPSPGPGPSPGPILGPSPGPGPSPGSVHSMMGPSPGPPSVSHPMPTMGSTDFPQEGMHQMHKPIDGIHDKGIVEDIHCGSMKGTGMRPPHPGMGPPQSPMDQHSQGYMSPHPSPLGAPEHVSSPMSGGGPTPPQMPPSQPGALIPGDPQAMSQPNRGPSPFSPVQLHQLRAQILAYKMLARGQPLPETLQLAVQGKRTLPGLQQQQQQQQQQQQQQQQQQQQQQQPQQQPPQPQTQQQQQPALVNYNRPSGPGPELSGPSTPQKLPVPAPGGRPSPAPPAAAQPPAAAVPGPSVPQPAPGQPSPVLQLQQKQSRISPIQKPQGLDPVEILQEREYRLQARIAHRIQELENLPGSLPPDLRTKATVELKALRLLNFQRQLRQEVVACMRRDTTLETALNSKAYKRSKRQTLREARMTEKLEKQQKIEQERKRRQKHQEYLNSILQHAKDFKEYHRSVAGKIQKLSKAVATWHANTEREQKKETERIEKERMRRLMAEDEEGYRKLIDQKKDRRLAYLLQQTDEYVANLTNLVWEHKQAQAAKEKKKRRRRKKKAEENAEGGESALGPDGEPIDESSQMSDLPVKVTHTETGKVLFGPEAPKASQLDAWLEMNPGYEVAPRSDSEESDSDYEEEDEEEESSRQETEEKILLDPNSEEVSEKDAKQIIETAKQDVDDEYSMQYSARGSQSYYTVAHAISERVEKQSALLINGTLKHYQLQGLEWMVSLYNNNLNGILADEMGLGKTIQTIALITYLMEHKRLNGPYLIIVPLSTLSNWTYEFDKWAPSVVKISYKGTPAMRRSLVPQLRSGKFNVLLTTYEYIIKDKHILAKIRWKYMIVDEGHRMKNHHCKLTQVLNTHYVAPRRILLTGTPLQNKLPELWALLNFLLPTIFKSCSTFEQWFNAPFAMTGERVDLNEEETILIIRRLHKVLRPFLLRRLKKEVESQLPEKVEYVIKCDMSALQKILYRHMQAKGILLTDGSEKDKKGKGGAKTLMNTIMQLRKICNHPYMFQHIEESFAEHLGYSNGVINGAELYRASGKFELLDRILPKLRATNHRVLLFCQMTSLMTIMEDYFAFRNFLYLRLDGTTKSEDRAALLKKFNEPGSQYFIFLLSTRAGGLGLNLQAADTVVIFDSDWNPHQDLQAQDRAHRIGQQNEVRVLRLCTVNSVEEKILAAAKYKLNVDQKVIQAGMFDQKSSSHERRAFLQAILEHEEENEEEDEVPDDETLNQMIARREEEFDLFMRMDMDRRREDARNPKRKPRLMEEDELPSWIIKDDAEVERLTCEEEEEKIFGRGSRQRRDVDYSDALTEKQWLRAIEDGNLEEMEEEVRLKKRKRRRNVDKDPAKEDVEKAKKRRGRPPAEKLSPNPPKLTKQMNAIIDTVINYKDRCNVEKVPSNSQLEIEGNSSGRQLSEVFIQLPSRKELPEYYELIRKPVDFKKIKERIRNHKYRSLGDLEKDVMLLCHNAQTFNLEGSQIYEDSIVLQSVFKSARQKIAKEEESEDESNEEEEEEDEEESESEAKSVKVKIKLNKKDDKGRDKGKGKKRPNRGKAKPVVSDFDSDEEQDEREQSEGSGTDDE

COMPOUND	SYSTEM	DC50
Cc1ncsc1-c1ccc([C@H](CN2CCOCC2)NC(=O)[C@@H]2C[C@@H](O)CN2C(=O)[C@@H](c2cc(O[C@H]3CC[C@H](CN4CCC(c5ccc6c(c5)-n5c(nc(=O)c7c(Cl)cccc75)C65CCCCC5)CC4)CC3)no2)C(C)C)cc1 [Compound B158]	SMARCA2 (Homo sapiens)	< 100 nM
Cc1ncsc1-c1ccc([C@H](C)NC(=O)C2C[C@@H](O)CN2C(=O)[C@@H](c2cc(OCCCCN3CCC(c4cccc5c4C(C)(C)c4nc(=O)c6c(Cl)cccc6n4-5)CC3)no2)C(C)C)cc1 (stereo in doubt) [Compound B98]	SMARCA2 (Homo sapiens)	< 100 nM
Cc1ncsc1-c1ccc([C@H](C)NC(=O)[C@@H]2C[C@@H](O)CN2C(=O)[C@@H](NC(=O)CN2CCC(c3ccc4c(c3)C(C)(C)c3nc(=O)c5c(Br)cccc5n3-4)CC2)C(C)(C)C)cc1 [Compound B5]	SMARCA2 (Homo sapiens)	< 100 nM
CNC(=O)[C@@H]1C[C@@H](O)CN1C(=O)[C@H](C(C)C)n1cc([C@H]2CC[C@H](CN3CCC(c4ccc5c(c4)-n4c(nc(=O)c6c(Cl)cccc64)C5(C)C)CC3)CC2)nn1 [Compound B59]	SMARCA2 (Homo sapiens)	100 to 500 nM
Cc1ncsc1-c1ccc([C@H](CCCCCn2cc(-c3ccc4c(c3)C(C)(C)c3nc(=O)c5c(Cl)cccc5n3-4)cn2)NC(=O)[C@@H]2C[C@@H](O)CN2C(=O)[C@@H](NC(=O)C2(F)CC2)C(C)(C)C)cc1 [Compound B56]	SMARCA2 (Homo sapiens)	100 to 500 nM
C[C@H](NC(=O)[C@@H]1C[C@@H](O)CN1C(=O)[C@@H](n1cc([C@H]2CC[C@H](CN3CCC(c4ccc5c(c4)-n4c(nc(=O)c6c(Cl)cccc64)C5(C)C)CC3)CC2)nn1)C(C)(C)C)c1ccc(-c2scnc2C#N)cc1 [Compound B141]	SMARCA2 (Homo sapiens)	< 100 nM
Cc1cc([C@H](C(=O)N2C[C@H](O)C[C@H]2C(=O)N[C@@H](C)c2ccc(-c3scnc3C(=O)NCCCCOCCN3CCC(c4ccc5c(c4)-n4c(nc(=O)c6c(Cl)cccc64)C5(C)C)CC3)cc2)C(C)C)on1 [Compound B147]	SMARCA2 (Homo sapiens)	100 to 500 nM
CC#Cc1ccc([C@H](C)NC(=O)[C@@H]2C[C@@H](O)CN2C(=O)[C@H](C(C)C)n2cc([C@H]3CC[C@H](CN4CCC(c5ccc6c(c5)-n5c(nc(=O)c7c(Cl)cccc75)C6(C)C)CC4)CC3)nn2)cc1 [Compound B131]	SMARCA2 (Homo sapiens)	< 100 nM
Cc1ncsc1-c1ccc2c(c1)CCC[C@@H]2NC(=O)[C@@H]1C[C@@H](O)CN1C(=O)[C@@H](n1cc([C@H]2CC[C@H](CN3CCC(c4ccc5c(c4)-n4c(nc(=O)c6c(Cl)cccc64)C5(C)C)CC3)CC2)nn1)C(C)(C)C [Compound B146]	SMARCA2 (Homo sapiens)	< 100 nM
